- System: hN + hpA co-culture (H1 iNGN2 human neurons + human primary astrocytes)
- test_name: presynaptic density (SYNAPSIN1 puncta per MAP2 neurite area), Z-score vs DMSO controls; higher = more presynaptic puncta (synapse-promoting)
- condition_summary: 3 µM; 72 h
Tag: TRUE if measured presynaptic density (Z-score) is not below 0.3, FALSE if it is.

compound | class_name
NCC(=O)Nc1ccc(-n2nc(C(F)(F)F)cc2-c2ccc3c(ccc4ccccc43)c2)cc1 | FALSE
CCc1c2c(nc3ccc(O)cc13)-c1cc3c(c(=O)n1C2)COC(=O)[C@]3(O)CC | TRUE
Nc1nc(N)c2nc(-c3cccc(O)c3)c(-c3cccc(O)c3)nc2n1 | TRUE
CCN(CC)C(=O)/C(C#N)=C/c1cc(O)c(O)c([N+](=O)[O-])c1 [Entacapone] | TRUE
C=CC(=O)N1CCC[C@@H](n2nc(-c3ccc(Oc4ccccc4)cc3)c3c(N)ncnc32)C1 | FALSE
O=C(NOCC1CC1)c1ccc(F)c(F)c1Nc1ccc(I)cc1Cl | FALSE
CC1(C)CCC(CN2CCN(c3ccc(C(=O)NS(=O)(=O)c4ccc(NCC5CCOCC5)c([N+](=O)[O-])c4)c(Oc4cnc5[nH]ccc5c4)c3)CC2)=C(c2ccc(Cl)cc2)C1 | FALSE
Cc1ccc(NC(=O)C2(c3ccc4c(c3)OC(F)(F)O4)CC2)nc1-c1cccc(C(=O)O)c1 [VX-809 (Lumacaftor)] | FALSE
O=C(NNc1ccccc1)c1ccncc1 | FALSE
COc1ccc2cccc(CCNC(C)=O)c2c1 [Agomelatine] | FALSE
O=C(Nc1ccncc1)c1cc([N+](=O)[O-])ccc1Cl [2-Chloro-5-nitro-N-4-pyridinylbenzamide] | TRUE
C[C@@H](c1ncncc1F)[C@](O)(Cn1cncn1)c1ccc(F)cc1F | FALSE

* * *

- Test system: hN + hpA co-culture (H1 iNGN2 human neurons + human primary astrocytes)
- test_name: presynaptic density (SYNAPSIN1 puncta per MAP2 neurite area), Z-score vs DMSO controls; higher = more presynaptic puncta (synapse-promoting)
- condition_summary: 3 µM; 72 h
Tag: fulfilled if measured presynaptic density (Z-score) is not below -0.7, not fulfilled if it is.

compound | test_target | class_name
Cc1noc(-c2ccc(CSCCC(=O)O)cc2)c1NC(=O)OC(C)c1ccccc1Cl (stereo not drawn) | hN + hpA co-culture (H1 iNGN2 human neurons + human primary astrocytes) | fulfilled
O=C(NCCN1CCOCC1)c1ccc(Cl)cc1 | hN + hpA co-culture (H1 iNGN2 human neurons + human primary astrocytes) | fulfilled
CC(C)C[C@H](NC(=O)CNC(=O)c1cc(Cl)ccc1Cl)B(O)O | hN + hpA co-culture (H1 iNGN2 human neurons + human primary astrocytes) | not fulfilled
C[C@@H]1CCN(C(=O)CC#N)C[C@@H]1N(C)c1ncnc2[nH]ccc12 | hN + hpA co-culture (H1 iNGN2 human neurons + human primary astrocytes) | not fulfilled
C=C[C@@]1(C)CC(=O)[C@]2(O)[C@@]3(C)[C@@H](O)CCC(C)(C)[C@@H]3[C@H](O)[C@H](OC(C)=O)[C@@]2(C)O1 | hN + hpA co-culture (H1 iNGN2 human neurons + human primary astrocytes) | fulfilled
CC(NC(=O)C(O)c1cc(F)cc(F)c1)C(=O)NC1C(=O)N(C)c2ccccc2-c2ccccc21 (stereo not drawn) | hN + hpA co-culture (H1 iNGN2 human neurons + human primary astrocytes) | fulfilled
CC(=O)c1c(C)c2cnc(Nc3ccc(N4CCNCC4)cn3)nc2n(C2CCCC2)c1=O | hN + hpA co-culture (H1 iNGN2 human neurons + human primary astrocytes) | fulfilled

* * *

- Test system: hN + hpA co-culture (H1 iNGN2 human neurons + human primary astrocytes)
- test_name: presynaptic density (SYNAPSIN1 puncta per MAP2 neurite area), Z-score vs DMSO controls; higher = more presynaptic puncta (synapse-promoting)
- condition_summary: 3 µM; 72 h

molecule | presynaptic density (Z-score)
N#CC[C@H](C1CCCC1)n1cc(-c2ncnc3[nH]ccc23)cn1 | 0.202
C[C@H]1COC2=C1C(=O)C(=O)c1c2ccc2c1CCCC2(C)C | 0.405
COC(=O)CCSCc1ccc(-c2onc(C)c2NC(=O)OC(C)c2ccccc2Cl)cc1 (stereo unspecified) | -0.843
CCCN[C@H]1CCc2nc(N)sc2C1 [Pramipexole] | 0.794
CC12CC3CC(C)(C1)CC(N)(C3)C2 | -1.67
CCOC(=O)N1CCC(=C2c3ccc(Cl)cc3CCc3cccnc32)CC1 | 1.78
CCOC(=O)C1=C(N)Oc2ccc(Br)cc2C1C(C#N)C(=O)OCC (stereo unspecified) | 0.81
CS(=O)(=O)c1cccc(CNc2nc(Nc3ccc4c(c3)CCC(=O)N4)ncc2C(F)(F)F)c1 | 1.04
CC(C)CCN1c2nc(Nc3cc(F)c(O)c(F)c3)ncc2N(C)C(=O)C1C (stereo unspecified) | 2.11
O=C1NC(=O)C(c2ccccc2[N+](=O)[O-])=C1Nc1ccc(O)c(Cl)c1 | -0.662
CCCCOc1ccc(C(=O)Nc2ccc(F)cc2F)cc1 | 0.219

* * *

Quick list: presynaptic density (Z-score) per entry.
- Tested on: hN + hpA co-culture (H1 iNGN2 human neurons + human primary astrocytes);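 further: immunostained co-cultures imaged by high-content microscopy, Z-score per plate against mean and SD of 0.1% DMSO wells, compounds added on differentiation day 18, analysed day 21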
- test_name: presynaptic density (SYNAPSIN1 puncta per MAP2 neurite area), Z-score vs DMSO controls; higher = more presynaptic puncta (synapse-promoting)
- condition_summary: 3 µM; 72 h
endpoint_label: presynaptic density (Z-score)

compound | experimental_value
Cc1cc(-c2ccc(CC(=O)Nc3ccc(-c4cccnc4)cc3)cc2)ccn1 | 0.0884
COc1cc2c(Nc3ccc(NC(=O)c4ccccc4)cc3)ncnc2cc1OCCCN1CCOCC1 | -1.71
N#Cc1ccc(C(c2ccc(C#N)cc2)n2cncn2)cc1 | 0.0621
Cc1cc(OCCCS(C)(=O)=O)cc(C)c1-c1cccc(COc2ccc3c(c2)OC[C@H]3CC(=O)O)c1 | -0.294
C[S+]([O-])c1ccc(-c2nc(-c3ccc(F)cc3)c(-c3ccncc3)[nH]2)cc1 (configuration not stated) | -1.11
C/C(=C\C(=O)Nc1ccccc1C(=O)O)c1ccc2ccccc2c1 | -1.34
NC(=O)Nc1sc(-c2ccc(F)cc2)cc1C(N)=O | -1.69
COc1ccccc1Oc1c(NS(=O)(=O)c2ccc(C(C)(C)C)cc2)nc(-c2ncccn2)nc1OCCO [Bosentan Hydrate] | 0.531
C=CCc1cccc(C=NNC(=O)CN2CCN(Cc3ccccc3)CC2)c1O | -1.87
CCOC(=O)CCNc1cc(N2CCc3ccccc3CC2)nc(-c2ccccn2)n1 | -3.3
O=C(CCCCCCC(=O)Nc1ccc([C@H]2O[C@@H](CSc3nc(-c4ccccc4)c(-c4ccccc4)o3)C[C@@H](c3ccc(CO)cc3)O2)cc1)NO | 0.79
COc1ccc(C2CNC(=O)C2)cc1OC1CCCC1 (configuration not stated) | -0.353
COc1cc2ncnc(Nc3ccc(Cl)cc3F)c2cc1OC | -0.982
NC(=O)Nc1cc(-c2cccc(F)c2)sc1C(=O)N[C@H]1CCCNC1 | 0.58
O=C(/C=C/c1cccc(S(=O)(=O)Nc2ccccc2)c1)NO | 2.26
COc1cccc(-c2cc(F)ccc2C2Cc3nc(N)nc(C)c3C(=O)N2)n1 (configuration not stated) | 2.18
CCc1nc(N)nc(N)c1-c1ccc(Cl)cc1 | -0.391
COc1ccc(C(=O)Nc2sc3c(c2C(N)=O)CCCC3)cc1OC | 0.457
CCC(=O)NCC[C@@H]1CCc2ccc3c(c21)CCO3 | -1.53
CC(C)(C)c1cc(NC(=O)Nc2ccc(-c3cn4c(n3)sc3cc(OCCN5CCOCC5)ccc34)cc2)no1 | 0.214
CC[C@H](C)C(=O)O[C@H]1C[C@@H](C)C=C2C=C[C@H](C)[C@H](CC[C@@H]3C[C@@H](O)CC(=O)O3)[C@H]21 | 1.56
NC1(Cc2ccc(Cl)cc2)CCN(c2ncnc3[nH]ccc23)CC1 | -0.622

Measured values drawn from the supplement of paper PMC10121225 for this set.
